test: APR_HepG2_MitoMembPot_24hr: Apredica 24-hour HepG2 Assay for Mitochondrial Membrane Potential (AID 2282911)
condition: imaging, actives raise or lower the signal
Experimental: APR_HepG2_24hr is a cell-based, multiplexed-readout assay that uses HepG2, a human liver cell line, with measurements taken at 24 hours after chemical dosing in a 384-well plate.APR_HepG2_MitoMembPot_24hr is one of 10 assay component(s) measured or calculated from the APR_HepG2_24hr assay. […] This assay endpoint, APR_HepG2_MitoMembPot_24hr, was analyzed with bidirectional fitting relative to DMSO as the negative control and baseline of activity. […]
Activity calls are given as the source filed them. The calls were made as follows: active = hit-call score of the fitted dose curve at least 0.9, where 1 is the maximum; inactive = score below 0.9.
Classes used: 1.0 for active, 0.0 for inactive

# compound, class
rows = [
    ("c1ccc2ccccc2c1", 0.0),
    ("Cc1oc2c(NC(=O)c3c(Cl)cccc3Cl)cccc2c1C(C)(C)O", 0.0),
    ("Cc1cc2c(cc1C(F)(F)F)N(C(=O)Nc1ccc(Oc3cccnc3C)nc1)CC2", 0.0),
    ("COCC(C)OCC(C)OCC(C)O (stereo not drawn)", 0.0),
    ("CCCCCCCCCCCCO", 0.0),
    ("CC(C)(C)c1cc(/C=C2\\SC(N)=NC2=O)cc(C(C)(C)C)c1O", 0.0),
    ("Cc1c2ccccc2c(C)c2c1ccc1ccccc12", 1.0),
    ("CC(O)CC(C)(C)O (stereo not drawn)", 0.0),
    ("NC(=O)c1nc(-c2cccc(-c3cc(F)ccc3OCC(F)(F)C(F)(F)F)c2)n[nH]1", 0.0),
    ("CCN(Cc1cccc(S(=O)(=O)O)c1)c1ccc(C(=C2C=CC(=[N+](CC)Cc3cccc(S(=O)(=O)O)c3)C=C2)c2ccccc2S(=O)(=O)[O-])cc1", 0.0),
    ("O=C1CCC(C2CCCCC2)CC1", 1.0),
    ("O=C(OCCCCCCOC(=O)c1ccccc1)c1ccccc1", 0.0),
    ("CCCCCCCCCCCO", 1.0),
]

---

Read-out: Keratin 19 (KRT19), KRT19 (gene 3880)
test: LTEA_HepaRG_KRT19: Life Technologies and Expression Analysis (LTEA) Assay for Keratin 19 (KRT19) using HepaRG (AID 2283512)
condition: mRNA level, 48 h; actives raise or lower the signal
The source made the active and inactive calls. Rule for the calls: active = hit-call score of the fitted dose curve at least 0.9, where 1 is the maximum; inactive = score below 0.9.
Outcome codes: active, inactive

# compound, class
records = [
    ("COc1ccc2cc(S(=O)(=O)N[C@H](CC(=O)N[C@H](Cc3ccc(CN4[C@H](C)CCC[C@@H]4C)cc3)C(=O)N(C)C(C)C)c3ccc4c(c3)OCO4)ccc2c1", "active"),
    ("CCCCCCCCCCCC[N+](C)(C)C", "active"),
    ("Cc1cc(F)ccc1-c1cc(N2CC[C@@H](O)[C@H]2CO)ncc1N(C)C(=O)C(C)(C)c1cc(C(F)(F)F)cc(C(F)(F)F)c1", "inactive"),
    ("O=C(OCCCCCCOC(=O)c1ccccc1)c1ccccc1", "inactive"),
    ("CN(C)C(=O)C1(N2CCCCC2)CCN(CC[C@@]2(c3ccc(Cl)c(Cl)c3)CN(C(=O)c3ccccc3)CCO2)CC1", "inactive"),
    ("O=C(O)Cn1c(=O)n(Cc2ccc(Br)cc2F)c(=O)c2ccc(Cl)cc21", "active"),
    ("CCCCCc1ccc(N)cc1", "inactive"),
    ("Cc1c2ccccc2c(C)c2c1ccc1ccccc12", "active"),
    ("C[C@]12CC[C@@H]3c4ccc(O)cc4CC[C@H]3[C@@H]1CC[C@H]2O", "inactive"),
    ("c1ccc(C[n+]2cccc3ccccc32)cc1", "active"),
    ("CCCCOC(=O)c1ccc(O)cc1", "inactive"),
    ("O=C1CCC(C2CCCCC2)CC1", "inactive"),
    ("OCCO", "inactive"),
    ("Cc1ncc(CO)c(CO)c1O", "inactive"),
    ("CCN(Cc1cccc(S(=O)(=O)O)c1)c1ccc(C(=C2C=CC(=[N+](CC)Cc3cccc(S(=O)(=O)O)c3)C=C2)c2ccccc2S(=O)(=O)[O-])cc1", "inactive"),
    ("O=C1c2ccccc2C(=O)N1CCc1noc(-c2ccc(CN3CCCCCC3)s2)n1", "inactive"),
    ("OC12N=C(c3ccccc3)SC1Cc1cc(Cl)ccc12 (configuration not stated)", "active"),
    ("CC[C@@H]1C[C@H](N(Cc2cc(C(F)(F)F)cc(C(F)(F)F)c2)C(C)=O)c2cc(C(F)(F)F)ccc2N1C(=O)OC(C)C", "inactive"),
    ("CCCCCCCCCC(=O)O", "inactive"),
    ("CC[C@H](NC(=O)c1cc(F)ccc1NS(=O)(=O)c1cccc2cccnc12)c1ccccc1", "inactive"),
    ("O=CCCCC=O", "inactive"),
    ("COCC(C)OCC(C)OCC(C)O (configuration not stated)", "inactive"),
]

Cited source: PubChem BioAssay (EPA / NIEHS)
